Values were extracted from patent US20240309087A1.

measured_on: T1, hCD112R mFC recombinant protein (human; murine, UniProt Q6DKI7 41-160)
T1 construct: range 41-160; expressed in 293E cells; also called hCD112R ECD mFC; hCD112R-ECD-mFC; not shown: murine IgG2a Fc domain (MX2-mFc vector)
T1 sequence (looked up): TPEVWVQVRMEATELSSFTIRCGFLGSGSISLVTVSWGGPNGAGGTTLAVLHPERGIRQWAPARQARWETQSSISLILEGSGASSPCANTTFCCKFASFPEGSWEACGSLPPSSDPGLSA
test_method_notes: FACS competition, hCD112R mFc on CHO CD112 cells
Measured IC50, listed per entry for reference.
Value expressed in µg/mL; do not type the unit.

binder	assay_result
Hu57 (antibody, IgG4, V domains shown, humanized IgG4) VH: EVQLVESGGGLVQPGGSLRLSCAASGFTFSSYHMSWIRQAPGKGLELVAAINSNGINTYYLDTVKGRFTISRDNAKNSLYLQMNSLRAEDTAVYYCARHEDYYGFAMDYWGQGTLVTVSS VL: EIVMTQSPPTLSLSPGERVTLSCKASQSVSNDVAWYQEKPGQAPRLLIYYVSHRFTGIPARFSGSGSGTDFTLTISSLQPEDFAVYYCHQAYRSPWTFGQGTKLEIK	3.64

Turning now to a further binder:
Asked: Param item = Hu8 (antibody, IgG4, V domains shown, humanized IgG4; also called Hu-08) VH: EVQLVESGGGLVKPGGSLRLSCAASGFTFSSYHMSWVRQAPGKGLELVSAINSNDINTYYLDTVKGRFTISRDIAKNSLYLQMNSLRAEDTAVYYCARHEDYYGFAMDYWGQGTLVTVSS VL: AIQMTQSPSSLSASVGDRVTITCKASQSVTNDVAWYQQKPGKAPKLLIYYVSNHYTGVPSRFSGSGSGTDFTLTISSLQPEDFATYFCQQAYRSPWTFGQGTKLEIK ; retrieve measured IC50.
Given back: 4.62
